Target: T1, PUF4 RNA-binding domain (Saccharomyces cerevisiae, UniProt P25339 537-888)
T1 sequence: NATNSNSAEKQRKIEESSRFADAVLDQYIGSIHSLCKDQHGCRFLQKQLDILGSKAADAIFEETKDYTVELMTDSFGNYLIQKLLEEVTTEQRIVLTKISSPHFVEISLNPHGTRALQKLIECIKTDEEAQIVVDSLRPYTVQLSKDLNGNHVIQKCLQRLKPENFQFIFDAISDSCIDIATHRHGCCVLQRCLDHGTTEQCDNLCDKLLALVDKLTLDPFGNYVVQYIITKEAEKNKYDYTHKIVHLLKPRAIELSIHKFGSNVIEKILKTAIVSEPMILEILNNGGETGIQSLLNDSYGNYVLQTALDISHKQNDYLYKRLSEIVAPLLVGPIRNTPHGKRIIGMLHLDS
Experiment: Mg; RNA-MaP; 20 mM Na-HEPES pH 7.4, 30 mM KOAc, 0.75 mM MgCl2, 0.1% Tween-20, 5% glycerol, 0.1 mg/mL BSA, 2 mM DTT; 25 C; 0.0125-409.6 nM protein
Conditions: tags: N-His6-TEV cleaved; C-SNAP kept, Cy3B-labelled; label: tethered on chip by stalled RNA polymerase
Hi all, reminder that labels come from Kd, split as LOW: < 4 nM; MEDIUM: ≥ 4 nM and < 40 nM; HIGH: ≥ 40 nM

Check out these entries, answers already filled in.
{"columns": ["Binder", "Assigned Label"],
 "data": [
  ["Ic_S2_P4E.1_K4.1_C4.1_H4.1_A4.1_F4.1_T4.1 (ssRNA) RNA: UUUGAUUAAUAUGAUAUCGUUCUUUCUUGUAUAUUAUUCUUUCUCGAUAUCAUAUUAAUCUUU", "LOW"],
  ["Id_ii_S4_P5E.2_K5.1_C5.2_[C-2G]_H5.1_A5.1_F5.1_T5.2_[T11A] (ssRNA) RNA: UUUGACAACUGAUCGUUCUUUCUGUUGUAUUAUUAAAUUCUUUCUCGAUCAGUUGUCUUU", "MEDIUM"],
  ["Id_ii_S4_P4E.4_K4.3_C4.2_[C-2G]_H4.3_A4.1_F4.1_T4.2_[G10A]_[T11C] (ssRNA) RNA: UUUGACAACUGAUCGUUCUUUCUGUACACUAUUAACUUCUUUCUCGAUCAGUUGUCUUU", "LOW"],
  ["Ib_S2_P3E.1_K3.1_C3.1_H3.1_A3.1_[A6C]_F3.1_[A8G]_T3.1 (ssRNA) RNA: UUUGAUUAAUAUGAUAUCGUUCUUUCUUGUAUCUGUUCUUUCUCGAUAUCAUAUUAAUCUUU", "MEDIUM"],
  ["UCUCUUUGUACUCAUUUCUCUU (ssRNA) [Ic_S1_P5E.1_K5.1_C5.1_H5.1_A5.1_[T5C]_[A7C]_F5.1_[T8A]_[A10T]_T5.1]", "HIGH"]
]}

Each binder maps to one class by Kd. Which class for UCUCUUUGUAUGGUCUCUCUU (ssRNA) [Ic_S1_P4E.1_K4.1_C4.1_H4.1_A4.1_[A6G]_[T7G]_F4.1_[A9C]_T4.1] ?
HIGH

Each binder maps to one class by Kd. Which class for UCUCUUACUGUAUAUAGCUCUCUU (ssRNA) [Id_ii_S1_P3E.2_K3.1_C3.2_[C-2A]_[T-1C]_H3.1_A3.1_F3.1_T3.2_[T9G]_[A10C]] ?
MEDIUM

Each binder maps to one class by Kd. Which class for UCUCUUUCACACUAUUACUUCUCUU (ssRNA) [Id_ii_S1_P4E.4_K4.3_C4.2_[C-2T]_[T-1C]_H4.3_A4.1_F4.1_T4.2_[G10C]] ?
HIGH

Each binder maps to one class by Kd. Which class for Ie_S2_P3E.2_K3.1_C3.2_H3.1_A3.1_F3.1_[+8CCCTT]_T3.2 (ssRNA) RNA: UUUGAUUAAUAUGAUAUCGUUCUUUCUCUUGUAUAUACCCUUUAUUCUUUCUCGAUAUCAUAUUAAUCUUU ?
LOW

Each binder maps to one class by Kd. Which class for UCUCUUAUACACUUAUUAGCUCUCUU (ssRNA) [Id_ii_S1_P5E.4_K5.3_C5.2_[C-2A]_H5.3_A5.1_F5.1_T5.2_[T11G]_[A12C]] ?
HIGH

Each binder maps to one class by Kd. Which class for Ib_S2_P4E.1_K4.1_C4.1_H4.1_A4.1_[T5C]_[A6T]_F4.1_T4.1 (ssRNA) RNA: UUUGAUUAAUAUGAUAUCGUUCUUUCUUGUACUUUAUUCUUUCUCGAUAUCAUAUUAAUCUUU ?
LOW

Values compiled from paper PMC9352680.
